- Test system: Fibroblast
- Method Summary: Multiplex assay against human fibroblast
- Format: toxicity, cell-based
- Condition Info: 24 h, 1 µM, compound concentration 1 uM, replicate 2
# Population Fragmented Nuclei (%) values compiled below
Number only, in %; omit the unit.

Sample answers from the record:
Smiles Input	Study System	Unit Symbol	Population Fragmented Nuclei (%)
COC(=O)C1=C(C)NC(C)=C(C(=O)OCCCN2CCC(c3ccccc3)(c3ccccc3)CC2)[C@H]1c1cccc([N+](=O)[O-])c1	Fibroblast	%	7
C=CC(=O)Nc1ccc2[nH]c(=O)n(C3CCN(Cc4ccc(-c5nc6cc[nH]c(=O)c6cc5-c5ccccc5)cc4)CC3)c2c1	Fibroblast	%	56
Cc1nc(N2CC[C@H](O)C2)ncc1-c1cc(C(F)(F)F)cc2[nH]ncc12	Fibroblast	%	45

Prompt: Can you look up the measured Population Fragmented Nuclei (%) of `CCc1ccc(OCc2ccccc2C(=O)Nc2ccc3nc(C)cc(N)c3c2)cc1.Cl` for me?
Completion: 25

Prompt: Can you look up the measured Population Fragmented Nuclei (%) of `CNC(=O)Nc1ccc2c(c1)[C@@]1(CC2)OC(=O)N(CC(=O)N(Cc2ccc(F)cc2)[C@@H](C)C(F)(F)F)C1=O` for me?
Completion: 63

Prompt: Can you look up the measured Population Fragmented Nuclei (%) of `CNC(=O)Nc1ccc(-c2nc(N3CC4CCC(C3)O4)c3cnn(C4CCC5(CC4)OCCO5)c3n2)cc1` for me?
Completion: 19

Prompt: Can you look up the measured Population Fragmented Nuclei (%) of `CCCSc1nc(N[C@@H]2C[C@H]2c2ccc(F)c(F)c2)c2nnn([C@@H]3C[C@H](OCCO)[C@@H](O)[C@H]3O)c2n1` for me?
Completion: 3

Prompt: Can you look up the measured Population Fragmented Nuclei (%) of `COc1ccccc1CN[C@H]1C2CCN(CC2)[C@H]1C(c1ccccc1)c1ccccc1` for me?
Completion: 4

----------
- Tested on: U2OS
- Method Summary: Incucyte cell viability with U2OS; further: filed as whole numbers so only -1 and 0 and 1 occur
- Format: toxicity, cell-based
- Condition Info: human, 12 h, 10 µM, compound concentration 10 uM, replicate number 1, timepoint 12 hours
Measure: Growth Rate
The reply should be a number, written without any unit.

Sample answers from the record:
Smiles Input	Growth Rate
COC(=O)C(Cc1ccc(OCCn2c(=O)sc3cc(C(=O)c4ccccc4)ccc32)cc1)C(=O)OC	1
COc1cc2ncnc(Nc3ccc(F)c(Cl)c3)c2cc1OCCCN1CCOCC1	0
O[C@H]1CC[C@H](Nc2ncc3nc(Nc4c(F)cc(F)cc4F)n([C@H]4CCOC4)c3n2)CC1	0
Cl.Cl.Cl.c1ccc(N2CCN(Cc3nc4ccccc4[nH]3)CC2)nc1	1

Prompt: Can you look up the measured Growth Rate of `O=C(Cc1ccccc1)Nc1nc2ccc(Cl)cc2c2nc(-c3ccco3)nn12` for me?
Completion: 1

----------
- Test system: HEK-293T
- Method Summary: Multiplex assay against HEK293T
- Assay type: toxicity, cell-based
- Condition Info: human, 24 h, 1 µM, compound concentration 1 uM, replicate 1
The following ranges of Population Healthy Nuclei (%) define the classes used here: low range (below 30%), mid range (30% to below 40%), high range (40% or more)

Examples from the recorded data:
Molecule	Label
COc1cc(Nc2nccc(-c3cnn4nc(OC)ccc34)n2)cc(C(F)(F)F)c1	low range
CN1CCN(Cc2ccc(Nc3ncc(Cl)c(Nc4ccccc4S(=O)(=O)N(C)C)n3)cc2)CC1 [DUBERMATINIB]	high range

Prompt: GET /class?item= COc1ccccc1CN[C@H]1C2CCN(CC2)[C@H]1C(c1ccccc1)c1ccccc1 [CP-96345]
Completion: high range

Prompt: GET /class?item= `C=CC(=O)Nc1cccc(Sc2nc(Nc3ccc(N4CCN(C)CC4)cc3)ncc2Cl)c1`
Completion: low range

Prompt: GET /class?item= O=C(c1cc2c(cc1F)OC(c1ccc(F)cc1)(c1ccc(Cl)cc1Cl)O2)N1CCOCC1 (stereo unspecified)
Completion: mid range

Prompt: GET /class?item= `C=CC(=O)Nc1cccc(Oc2nc(Nc3ccc(N4CCN(C)CC4)cc3OC)ncc2Cl)c1`
Completion: mid range

Prompt: GET /class?item= `Cc1ccc(C)c(Oc2ccncc2C(=O)N2CCN(C3CC3)c3ccccc32)c1`
Completion: high range

Prompt: GET /class?item= C=CC(=O)Nc1ccc2[nH]c(=O)n(C3CCN(Cc4ccc(-c5nc6cc[nH]c(=O)c6cc5-c5ccccc5)cc4)CC3)c2c1 [Borussertib]
Completion: high range
